Test: AUC (0 to 168 hrs) in Mycobacterium tuberculosis H37Rv ATCC 2517-infected hollow fiber system based in vitro pharmacokinetic-pharmacodynamic tuberculosis model
Format: ADME
Design: time < 168 hr
Endpoint name: AUC(0-t) at 168 h (µg·h/mL)
Just the number please, in µg·h/mL, no unit attached.

// query Tell me AUC(0-t) at 168 h reported for CO[C@H]1/C=C/O[C@@]2(C)Oc3c(C)c(O)c4c(O)c(c(/C=N/N5CCN(C)CC5)c(O)c4c3C2=O)NC(=O)/C(C)=C\C=C\[C@H](C)[C@H](O)[C@@H](C)[C@@H](O)[C@@H](C)[C@H](OC(C)=O)[C@@H]1C
// result 122
